test: chemical genetic growth profiling, strain panel (AID 1159580);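 further: tested at 20 µM; growth read once vehicle control cultures reached saturation at 30 °C; 1 = growth at the plate median or of vehicle wells; lower values mean less growth of the strain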; conditions: S. cerevisiae deletion strains, growth OD, locus YLR268W, strain sec22, hits give low values
Screen size: about 5,500 compounds; about 2,000 (36%) were called active. Not shown: some 18% with an inconclusive outcome. Some of the results follow.
assay_metric: normalized growth
Numbers only.

Worked examples, 4 molecules total:
CN(C)CCCO[C@H]1[C@@H](C(O)CO)OC2OC(C)(C)O[C@@H]21 (stereo not given in full): 0.945
CC[C@]12CCCN3CCc4c(n(c5ccccc45)C(=O)C1)[C@@H]32: 0.971
C[C@@H]1CC2C3CCC4=CC(=O)C=C[C@]4(C)[C@@]3(F)[C@@H](O)C[C@]2(C)[C@@]1(O)C(=O)COP(=O)(O)O (stereo not given in full): 0.996
CCOC(=O)C1=C[C@]2(CC)CCCN3CCc4c(n1c1ccccc41)[C@@H]32: 0.923

Attention now turns to another entry.
normalized growth reported for this molecule COc1ccc(C[C@H](N)C(=O)N[C@@H]2[C@@H](CO)OC(n3cnc4c(N(C)C)ncnc43)[C@@H]2O)cc1 (stereo not given in full) : 1.01

====

test: chemical genetic growth profiling, strain panel (AID 1159580); settings: S. cerevisiae deletion strains, growth OD, locus YNL020C, strain ARK1, hits give low values
Among all 5,500 compounds or so, about 2,000 (36%) were called active. Another 18% or so got no clear call; they are omitted. This is one part of the list.
With a cut-off of 0.8, any normalized growth strictly below it is called TRUE; any normalized growth meeting it or above is called FALSE.

COCCOc1ccccc1NC(=S)SCCSC(=S)Nc1ccccc1OCCOC: FALSE
O=C(CO/N=C\c1ccc(Cl)cc1Cl)NNC(=S)Nc1cc(Cl)ccc1Cl: FALSE
CC1(C)C/C(=N/Nc2ccc(C(F)(F)F)cc2)c2cc(C(C)(C)C)c(O)c(O)c2O1: TRUE

*Q* Problem: For the molecule COc1ccccc1C(C[N+](=O)[O-])c1c(N)n(C)c(=O)n(C)c1=O (stereo unspecified) , is normalized growth under 0.8?
*A* TRUE

*Q* Problem: For the molecule O=C(NCc1ccco1)c1csc(C2COc3ccccc3O2)n1 (stereo unspecified) , is normalized growth under 0.8?
*A* FALSE

====

assay: chemical genetic growth profiling, strain panel (AID 1159580); conditions: S. cerevisiae deletion strains, growth OD, locus YMR129W, hits give low values
Out of some 5,500 compounds screened, about 2,000 (36%) were called active. About 18% were inconclusive and are not listed. Some of the results follow.
assay_metric: normalized growth
Numbers only.

Worked examples, 5 molecules total:
CCCN(CCC)C(=O)C(CCC(=O)O)NC(=O)c1ccccc1 (stereo unspecified): 1
CC1(C)O[C@@H]2[C@@H](CO[C@@]3(COS(N)(=O)=O)OC(C)(C)O[C@@H]23)O1: 1
NC(=O)c1ccc(N)nc1: 0.983
CCC(COC(=O)c1cc(OC)c(OC)c(OC)c1)(c1ccccc1)N(C)C (stereo unspecified): 0.978
O=C(O)CCC(=O)c1ccc(-c2ccccc2)cc1: 0.987

normalized growth reported for this molecule `C[C@@H]1C[C@@H]([C@H](O)CC2CC(=O)NC(=O)C2)C(=O)[C@@H](C)C1` : 0.0549

====

experiment: chemical genetic growth profiling, strain panel (AID 1159580); conditions: S. cerevisiae deletion strains, growth OD, locus YPR111W, strain DBF20, hits give low values
The campaign covered roughly 5,500 compounds. About 2,000 (36%) were called active. Inconclusive results (about 18%) are left out. The list shows a part of the results.
assay_metric: normalized growth

Worked examples, 2 compounds total:
COc1ccccc1C(C[N+](=O)[O-])c1c(N)n(C)c(=O)n(C)c1=O (stereo unspecified): 0.966 (inactive)
NC(=NC(=O)c1ccc(Cl)cc1)c1cccs1: 0.915 (inactive)

Need normalized growth for each of these compounds.
1. CCCC1c2ccsc2CCN1C(=S)Nc1ccc(Cl)cc1Cl (stereo unspecified)
2. CCC1CCC(C)N(C(=S)Nc2ccc(Br)cc2C)C1 (stereo unspecified)

*A*
1. 0.959 (inactive)
2. 0.979 (inactive)

Need normalized growth for each of these compounds.
1. Cc1onc(-c2ccccc2Cl)c1-c1nc2ccccc2c(=O)o1
2. COc1ccccc1NC(=O)Nc1nn(C)c2cccc(OC)c12

*A*
1. 0.963 (inactive)
2. 0.919 (inactive)

====

Record form. Attribute: normalized growth. Fill in for each entry.
assay: chemical genetic growth profiling, strain panel (AID 1159580); conditions: S. cerevisiae deletion strains, growth OD, locus YNL307C, strain MCK1, hits give low values
Hit rate of the full screen: of about 5,500 compounds, about 2,000 (36%) were called active. Roughly 18% stayed inconclusive and do not appear here. The list shows a part of the results.

CC1(C)CC2C1CCC1(C)OC1CCC2(C)O (centres undefined): 1.01 (inactive)
COc1cc(C(=O)O)c(O)c2c1OCO2: 1.01 (inactive)
CO[C@@H]1C[C@@H](C[C@H]2CC[C@H](C)[C@H]([C@@H](C)C(=O)O)O2)O[C@]2(O[C@](C)([C@H]3CC[C@@](C)(C4O[C@@H](C5O[C@@](O)(CO)[C@H](C)C[C@@H]5C)C[C@@H]4C)O3)C[C@H]2C)[C@@H]1C (some centres undefined): 1.01 (inactive)

Need normalized growth for each of these molecules.
1. CC1(C)CC2C1CCC1(C)OC2(C)CCC1O (centres undefined)
2. COc1cc(/C=C/C(=O)O)ccc1O
3. Nc1c(Br)cc(Br)cc1CNC1CCC(O)CC1 (centres undefined)
4. O=C1CN(/N=C\c2ccc([N+](=O)[O-])o2)C(=O)N1
5. C=CC1=C(C)/C(=C/c2[nH]c(Cc3[nH]c(/C=C4\NC(=O)C(C)=C4C=C)c(C)c3CCC(=O)O)c(CCC(=O)O)c2C)NC1=O

*A*
1: 1.02 (inactive); 2: 0.977 (inactive); 3: 1.01 (inactive); 4: 0.952 (inactive); 5: 1.01 (inactive)

normalized growth reported for this molecule `CN(Cc1cc(Br)cc(Br)c1N)C1CCCCC1` : 1.01 (inactive)

====

assay: chemical genetic growth profiling, strain panel (AID 1159580);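 further: tested at 20 µM; growth read once vehicle control cultures reached saturation at 30 °C; 1 = growth at the plate median or of vehicle wells; lower values mean less growth of the strain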; conditions: S. cerevisiae deletion strains, growth OD, locus YOL006C, strain TOP1, hits give low values
Screen size: about 5,500 compounds; about 2,000 (36%) were called active. Roughly 18% stayed inconclusive and do not appear here. The list shows a part of the results.
With a cut-off of 0.8, any normalized growth strictly below it is called met; any normalized growth meeting it or above is called not met.

*Q* Problem: For the compound `C/C(=N/OC(=O)c1ccc(Cl)cc1)c1ccc(F)cc1` , is normalized growth under 0.8?
*A* met

*Q* Problem: For the compound CCCCC(CC)CN=C(N)NC(N)=NCCCCCCN=C(N)NC(N)=NCC(CC)CCCC (stereo unspecified) , is normalized growth under 0.8?
*A* met

====

Record form. Attribute: normalized growth. Fill in for each entry.
experiment: chemical genetic growth profiling, strain panel (AID 1159580);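 further: tested at 20 µM; growth read once vehicle control cultures reached saturation at 30 °C; 1 = growth at the plate median or of vehicle wells; lower values mean less growth of the strain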; details: S. cerevisiae deletion strains, growth OD, locus YJL128C, strain PBS2, hits give low values
About 2,000 (36%) of roughly 5,500 compounds were called active. Not shown: some 18% with an inconclusive outcome. Some of the results follow.
Answers are plain numbers.

Need normalized growth for each of these compounds.
1. COc1cc(C(=O)Oc2c(Cl)cc(Cl)cc2C=Nc2ccc([N+](=O)[O-])cc2C#N)cc(OC)c1OC
2. O=C(Nc1ccc(Cl)cc1Cl)c1cnccc1C(F)(F)F
3. CSc1cccc(N2C(=O)CC(c3c(Cl)cccc3Cl)CC2=O)c1
4. O=S(=O)(Nc1cc(C(F)(F)F)ccc1F)c1cc(C(F)(F)F)ccc1Cl
5. CC(=O)C(Sc1nc2ccccc2s1)C(C)=O
6. COc1cc(N=Cc2cc(Cl)cc(Cl)c2OC(=O)c2cc(OC)c(OC)c(OC)c2)c(OC)cc1Cl
7. O=C(Nc1ccccn1)c1cc(-c2ccccc2)c(C(F)(F)F)s1

*A*
[0.928, 0.935, 0.955, 0.911, 0.918, 0.937, 0.909]

Need normalized growth for each of these compounds.
1. COc1ccccc1NC(=O)Nc1nn(C)c2cccc(OC)c12
2. CC(C)(O)C#Cc1ccc(/C=N\Nc2ccccc2)cc1
3. Cc1nc(C(F)(F)F)c(C(=O)O/N=C(/N)c2ccc(Cl)cc2)s1
4. COc1cc(Cl)c(NS(=O)(=O)c2cc(Br)c(Br)s2)c(OC)c1
5. Clc1ccc(-c2noc(CSC3=NCCN3)n2)cc1
6. CSc1c(C#N)c(-c2ccc(Cl)cc2)nn1C(=O)c1ccccc1Cl

*A*
1. 0.953
2. 0.995
3. 0.978
4. 0.923
5. 0.912
6. 0.921

====

test: chemical genetic growth profiling, strain panel (AID 1159580);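 further: tested at 20 µM; growth read once vehicle control cultures reached saturation at 30 °C; 1 = growth at the plate median or of vehicle wells; lower values mean less growth of the strain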; conditions: S. cerevisiae deletion strains, growth OD, locus YMR223W, strain ubp8, hits give low values
The campaign covered roughly 5,500 compounds. About 2,000 (36%) were called active. Not shown: some 18% with an inconclusive outcome. The list shows a part of the results.
With a cut-off of 1, any normalized growth strictly below it is called class 1; any normalized growth meeting it or above is called class 0.

O=C1O[C@@H](CO)[C@H](O)[C@@H](O)[C@@H]1O: class 0

*Q* Problem: For the molecule `S=c1[nH]c2ccccc2s1` , is normalized growth under 1?
*A* class 1
